IC50 overview
molecular target: PRMT5 (Homo sapiens); construct: purchased Viva (custom protein); assay: PRMT5 IC50 assay with no cofactor; format: biochemical

INSERT INTO measurements (molecule, outcome_measure, endpoint_result) VALUES
  ('CC(=O)N1CC(Nc2cc(C(=O)NC[C@H](O)CN3CCc4cc(OCc5ocnc5C)ccc4C3)nc(N3CCCCC3)n2)C1 [Compound 534]', 'IC50', '0.5 to 5 µM'),
  ('Cc1ncoc1COc1ccc2c(c1)CCN(C[C@@H](O)CNC(=O)c1cc(Nc3cccnc3)nc(N3[C@@H]4CC[C@H]3COC4)c1)C2 [Compound 603]', 'IC50', '0.5 to 5 µM'),
  ('O=C(NC[C@H](O)CN1CCc2cc(OCc3cnco3)ccc2C1)c1ccnc(NC2CCN(C(=O)C3CC3)CC2)c1 [Compound 450]', 'IC50', '0.5 to 5 µM'),
  ('CC(=O)N1CC(Nc2cc(C(=O)NC[C@H](O)CN3CCc4c(ccc(OCc5cnco5)c4Cl)C3)nc(N3CCCCC3)n2)C1 [Compound 532]', 'IC50', '0.5 to 5 µM'),
  ('CC(=O)N1CCC(Nc2cc(C(=O)NC[C@H](O)CN3CCc4c(ccc(OCc5ocnc5C)c4C)C3)cc(N3CCN(C(C)=O)CC3)n2)CC1 [Compound 590]', 'IC50', '0.5 to 5 µM');

Now consider a different molecule.
In: Looking for the measured IC50 of CC(=O)N1CC(Nc2cc(C(=O)NC[C@H](O)CN3CCc4c(ccc(OCc5ocnc5C)c4C)C3)nc(C(C)C)n2)C1 [Compound 575] , can you help?
Out: ≥ 5 µM

----------
IC50 overview
molecular target: PRMT5 (Homo sapiens, UniProt O14744); construct: purchased Viva (custom protein); assay: PRMT5 IC50 assay with no cofactor; assay type: biochemical
Sequence (O14744 whole entry): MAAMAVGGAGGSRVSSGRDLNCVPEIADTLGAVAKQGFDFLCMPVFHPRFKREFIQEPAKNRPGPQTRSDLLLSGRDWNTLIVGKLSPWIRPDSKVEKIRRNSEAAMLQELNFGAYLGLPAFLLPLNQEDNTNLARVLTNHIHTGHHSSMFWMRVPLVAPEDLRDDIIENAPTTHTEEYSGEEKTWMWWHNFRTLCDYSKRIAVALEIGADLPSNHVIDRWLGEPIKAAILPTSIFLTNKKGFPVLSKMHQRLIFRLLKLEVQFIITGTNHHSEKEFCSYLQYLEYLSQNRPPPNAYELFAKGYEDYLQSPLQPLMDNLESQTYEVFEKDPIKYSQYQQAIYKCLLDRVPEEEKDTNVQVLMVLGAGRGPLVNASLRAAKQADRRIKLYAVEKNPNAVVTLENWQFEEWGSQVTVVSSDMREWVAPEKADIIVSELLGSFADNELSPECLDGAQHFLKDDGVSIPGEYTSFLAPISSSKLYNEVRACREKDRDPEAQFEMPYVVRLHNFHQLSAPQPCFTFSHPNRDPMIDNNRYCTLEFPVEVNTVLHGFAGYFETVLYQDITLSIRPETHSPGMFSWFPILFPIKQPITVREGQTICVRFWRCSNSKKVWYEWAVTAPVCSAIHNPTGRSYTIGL
Sequence (Q9BQA1 whole entry partner): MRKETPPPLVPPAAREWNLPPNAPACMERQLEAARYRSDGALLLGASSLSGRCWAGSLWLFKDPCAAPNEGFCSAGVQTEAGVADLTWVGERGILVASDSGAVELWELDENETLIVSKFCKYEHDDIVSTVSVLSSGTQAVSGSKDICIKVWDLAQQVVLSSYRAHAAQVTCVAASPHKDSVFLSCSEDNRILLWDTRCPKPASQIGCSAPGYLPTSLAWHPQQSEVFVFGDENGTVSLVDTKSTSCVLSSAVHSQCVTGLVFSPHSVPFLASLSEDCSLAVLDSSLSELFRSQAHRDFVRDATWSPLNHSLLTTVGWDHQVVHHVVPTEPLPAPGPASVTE

Field: example entries. Status: answers known.
INSERT INTO results (smiles_notation, endpoint_result) VALUES
  ('CC(=O)N1CCC(Nc2cc(C(=O)NC[C@H](O)CN3CCc4c(ccc(OCc5cnco5)c4C)C3)ccn2)CC1', '0.5 to 5 µM'),
  ('Cc1c(OCc2cnco2)ccc2c1CCN(C[C@@H](O)CNC(=O)c1cc(N[C@H]3C[C@H](C(=O)N4CCCCC4)C3)ncn1)C2', '≥ 5 µM'),
  ('COCCN(C)c1cc(C(=O)NC[C@H](O)CN2CCc3c(ccc(OCc4ocnc4C)c3C)C2)cc(NC2CCN(C(C)=O)CC2)n1', '0.5 to 5 µM'),
  ('Cc1ncoc1COc1ccc2c(c1)CCN(C[C@@H](O)CNC(=O)c1cc(NC3CCC3)ccn1)C2', '0.5 to 5 µM'),
  ('CC(C)C(=O)N1CCN(c2cc(C(=O)NC[C@H](O)CN3CCc4cc(OCc5cnco5)ccc4C3)cc(NC3CCC3)n2)CC1', '0.5 to 5 µM'),
  ('O=C(NC[C@H](O)CN1CCc2cc(OCc3cnco3)ccc2C1)c1cc(NC2CCC2)ncn1', '≥ 5 µM');

In: Looking for the measured IC50 of CCCC(=O)N1CC(Nc2cc(C(=O)NC[C@H](O)CN3CCc4cc(OCc5cnco5)ccc4C3)ccn2)C1 , can you help?
Out: ≥ 5 µM

In: And the next one, CCC(=O)N1CCC(Nc2cc(C(=O)NC[C@H](O)CN3CCc4cc(OCc5cnco5)ccc4C3)ccn2)CC1 ?
Out: 0.5 to 5 µM

In: And the next one, CC(=O)N1CC(Nc2cc(C(=O)NC[C@H](O)CN3CCc4cc(OCc5cnco5)ccc4C3)nc(N3CCOCC3)n2)C1 ?
Out: 0.5 to 5 µM

Just for reference, patent US11986471B2 is where these values come from.
